Measured values drawn from ChEMBL document CHEMBL1122679 for this set.

- protocol: pK value is evaluated
- Type: ADME
- condition-label: read-out: pK
measured-attribute: pKa

COc1ccccc1OCC(O)CNC(C)(C)C (stereo not given) = 9.8
COc1ccccc1CCC(O)CNC(C)(C)C (stereo not given) = 9.9
C=CCOc1ccccc1OCC(O)CNC(C)C (stereo not given) = 9.4
COc1ccccc1CCC(O)CNCCOc1ccc(O)c(C(N)=O)c1 (stereo not given) = 8.9
COc1ccccc1OCC(O)CNCCOc1ccc(O)c(C(N)=O)c1 (stereo not given) = 8.8

----------
- protocol: Partition coefficient (logP)
- Assay type: physicochemical
- condition-label: octanol/water; read-out: logP
measured-attribute: logP

See these solved cases before continuing.
NC(=O)c1cc(OCCNCC(O)c2ccccc2)ccc1O (stereo not given) = 1.24
COc1ccccc1CCC(O)CNCCOc1ccc(O)c(C(N)=O)c1 (stereo not given) = 1.56
COc1ccccc1OCC(O)CNCCOc1ccc(O)c(C(N)=O)c1 (stereo not given) = 1.14

(I) COc1ccccc1OCC(O)CNC(C)(C)C (stereo not given)
(II) COc1ccccc1CCC(O)CNC(C)(C)C (stereo not given)
Quick one: lower logP, I or II ? Write down the label attached to your selection.
I
